# procedure-summary: Human pharmacokinetics, multiple administration (MAD), Day 14
# Format: in vivo
# test-settings: human, plasma, oral; 200 mg tablet twice a day, Day 14, 12 hour dosing interval, N = 6
property-name: AUC(0-t)
A bare number is not enough; add the unit after it.

Given `O[C@H]1CCCN[C@@H]1CCCn1cnc2c(Cl)c(Cl)ccc21` , state its recorded AUC(0-t).
3010 ng·h/mL

----------
# procedure-summary: Human pharmacokinetics, multiple administration (MAD), Day 14
# Assay type: in vivo
# test-settings: human, plasma, oral; 25 mg tablet twice a day, Day 14, 12 hour dosing interval, N = 6
property-name: AUC(0-t) (ng·h/mL)
Only the number, expressed in ng·h/mL, is required.

Given `O[C@H]1CCCN[C@@H]1CCCn1cnc2c(Cl)c(Cl)ccc21` , state its recorded AUC(0-t).
183

----------
# procedure-summary: Pharmacokinetic test after single oral administration in ICR mice
# Type: in vivo
# test-settings: mouse, blood; ICR mice (male), single oral 10 mg/kg, saline
property-name: AUC (ng·h/mL)
Only the number, expressed in ng·h/mL, is required.

Given O[C@H]1CCCN[C@@H]1CCCn1cnc2c(Cl)c(Cl)ccc21 [Active component] , state its recorded AUC.
1190

----------
# procedure-summary: Human pharmacokinetics, multiple administration (MAD), Day 14
# Format: in vivo
# test-settings: human, plasma, oral; 50 mg tablet twice a day, Day 14, 12 hour dosing interval, N = 6
property-name: AUC(0-t) (ng·h/mL)
Only the number, expressed in ng·h/mL, is required.

Given `O[C@H]1CCCN[C@@H]1CCCn1cnc2c(Cl)c(Cl)ccc21` , state its recorded AUC(0-t).
429
